tested on: MDA-MB-231 breast; experiment: NCI-60 one-dose screen, 48 h (100 = growth as untreated, 0 = no growth, -100 = all killed); settings: 10 µM unless noted
This is part of a sample that, as a whole, favours compounds with a hit. Of some 83,000 tested, about 20% had one in any assay.
Binary classification by growth, with 70% as an inclusive lower bound for y; all other cases are n.

query: # bool: growth of CSc1nc2ccc(C)cc2cc1/C=N/O >= 70%
result: y

query: And what about the molecule CCOC(=O)/C(C#N)=C\Nc1ccc2ncnc(Nc3ccc(Cl)cc3Cl)c2c1 ?
result: y

query: And what about the molecule Cc1cccc(NC2=C(Cl)C(=O)c3nc(C)ccc3C2=O)c1 ?
result: n

query: And what about the molecule CC(=O)OC[C@H]1OC(Sc2sc(C(=O)c3ccc(C)cc3)c(N)c2-c2nc3ccccc3s2)[C@H](OC(C)=O)[C@@H](OC(C)=O)[C@@H]1OC(C)=O (some centres undefined) ?
result: n

query: And what about the molecule CN1CCN(c2ccc(-c3cc4c(Nc5ccc(F)c(Cl)c5)ncnn4c3)cc2)CC1 ?
result: y

query: And what about the molecule CCCCn1c(=O)c(-c2cc(-c3ccc(Cl)cc3)nc(-c3ccc(Cl)cc3)c2)cc2cc(Cl)ccc21 ?
result: y

query: And what about the molecule CCCC1CCC(O)(C(C)(O)C(=O)NC2C(=O)N3NCCCC3C(=O)N(O)C(C)C(=O)N3NCCCC3C(=O)N3NCC(O)CC3C(=O)NC(C)C(=O)OC2C(C)C)OC1CC (centres undefined) ?
result: n

query: And what about the molecule Cc1nn(-c2ccccc2)c(-n2ccnc2)c1/C=N/Nc1nc(-c2ccc(F)cc2)cs1 ?
result: y

====

tested on: LOX IMVI melanoma; test: NCI-60 one-dose screen, 48 h; conditions: 10 µM unless noted
This is part of a sample that, as a whole, favours compounds with a hit. Of some 83,000 tested, about 20% had one in any assay. The source made the active and inactive calls. Rule for the calls: active = growth percent below 10; inactive = the rest.
Hello, when you answer, please use one of the following outcomes: active, inactive

query: Hi, sorry to bother you, what did the test record for c1ccc2cc(C[n+]3ccn(CCCCCCCCCCCCn4cc[n+](Cc5ccc6ccccc6c5)c4)c3)ccc2c1 ?
result: active

query: And what about the molecule COc1ccc(C(=S)N2CCN(c3cccc(C)c3)CC2)cc1OC ?
result: inactive

query: And what about the molecule O=C1c2ccccc2NC(n2sc3ccccc3c2=O)N1c1ccccc1 (stereo not given) ?
result: inactive

query: And what about the molecule Cc1oc2nc[nH]c(=O)c2c1C(=O)/C=C/c1ccc(Br)cc1 ?
result: active

query: And what about the molecule Cc1ccc(-c2nc(SCC(=O)Nc3nc(-c4ccc(Cl)cc4)cs3)[nH]c(=O)c2C#N)cc1 ?
result: inactive

====

system: NCI/ADR-RES ovarian; test: NCI-60 one-dose screen, 48 h (100 = growth as untreated, 0 = no growth, -100 = all killed); conditions: 10 µM unless noted
The panel holds about 83,000 compounds, 20% with a hit somewhere; the sample as a whole holds those more often.
Binary classification by growth, with 70% as an inclusive lower bound for Satisfied; all other cases are Not satisfied.

query: # bool: growth of CC[C@H](C)C(=O)O[C@H]1CCC=C2C=C[C@H](C)[C@H](CC[C@@H]3CC=CC(=O)O3)[C@H]21 >= 70%
result: Satisfied

query: And what about the molecule CN(C)c1ccc(/C=N\Nc2cc(=O)[nH]c3ccc(Cl)cc23)cc1 ?
result: Satisfied

query: And what about the molecule NCCNc1nc2ccccc2c2c(=O)c3cc(F)ccc3sc12 ?
result: Satisfied

query: And what about the molecule CC1Cc2c(ncn3c(-c4ccc(F)cc4)nnc23)N(C)c2ccccc21 (stereo not given) ?
result: Not satisfied

query: And what about the molecule Clc1ccc(C(/C=C/c2sc(Cl)nc2Cl)=N/Nc2cc(Cl)cc(Cl)c2)cc1 ?
result: Satisfied

query: And what about the molecule COc1cc(C(=O)c2cnc(-c3cccc4[nH]ccc34)[nH]2)cc(OC)c1OC ?
result: Not satisfied

query: And what about the molecule c1ccc2cc(C[n+]3ccn(CCCCCCn4cc[n+](Cc5ccc6ccccc6c5)c4)c3)ccc2c1 ?
result: Satisfied

query: And what about the molecule CN1CCN(Cc2ccc(NC(=O)c3cncc(C#Cc4cnccc4C#N)c3)cc2C(F)(F)F)CC1 ?
result: Satisfied

query: And what about the molecule Cc1ccc(S(=O)(=O)N/N=C/C2(c3ccccc3)CC2)cc1 ?
result: Satisfied

query: And what about the molecule COc1ccc(C2CC(c3ccc(Nc4nc(Nc5ccc(F)cc5)nc(Nc5ccc(Cl)cc5)n4)cc3)=NN2C(C)=O)cc1 (stereo not given) ?
result: Satisfied

query: And what about the molecule O=C(Nn1c(NCC(=O)N2c3ccccc3Sc3ccccc32)nnc1-c1ccc(O)cc1)c1ccccc1 ?
result: Satisfied

query: And what about the molecule O=c1c2cc(F)ccc2sc2c(NCCO)nc3ccccc3c12 ?
result: Satisfied

query: And what about the molecule O=C1CCC(C(=O)NCCNCCNC(=O)C2CCC(=O)N2)N1 (stereo not given) ?
result: Satisfied

query: And what about the molecule Nc1nc(-c2cccc3ccccc23)cc2ccccc12 ?
result: Not satisfied

query: And what about the molecule NC1CCN(c2nc(Nc3cccc(C(F)(F)F)c3)c3c(=O)[nH]ccc3n2)CC1 ?
result: Not satisfied

query: And what about the molecule C/C(=C\C(=O)c1ccc(Cl)cc1)c1ccc(Cl)cc1 ?
result: Satisfied

query: And what about the molecule CCOC(=O)Nc1ccc(-c2nc(-c3cccc(OC)c3)c(-c3ccnc(Br)c3)[nH]2)cc1 ?
result: Not satisfied

query: And what about the molecule CN1CCN(c2ccc(-c3cc4c(Nc5ccc(F)c(Cl)c5)ncnn4c3)cc2)CC1 ?
result: Satisfied

query: And what about the molecule O=C(N/N=C/[C@H](O)[C@H](O)[C@H](O)CO)c1ccc(NC(=O)c2cccnc2)cc1 ?
result: Satisfied
